- Experiment notes: NCI Yeast Anticancer Drug Screen. Data for the wt1 strain (AID 149);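 further: 0% = growth of vehicle-treated wt1 cultures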
- Assay conditions: S. cerevisiae wt1 strain (SPY 50644) growth inhibition; at 1.2 µM; stronger effect = higher value
The panel holds about 79,000 compounds, 15% with a hit somewhere; the sample as a whole holds those more often.
Readout type: growth inhibition (%)
Give bare numbers, in %.

The examples below pair each entry with its known result.
{"Compound": "CN(C)CCn1c2ccccc2c2nc3cc4ccccc4cc3nc21", "growth inhibition, %": 15}
{"Compound": "CNc1ccc2[nH]c3ccccc3c2c1", "growth inhibition, %": 0}
{"Compound": "COC(=O)C1(N2CCOCC2)CCC([C@@H](c2ccccc2)C(C)[N+](=O)[O-])C1 (stereo partly specified)", "growth inhibition, %": -3}
{"Compound": "O=C(c1c(F)c(F)c(F)c(F)c1F)c1c(F)c(F)c(F)c(F)c1F", "growth inhibition, %": 3}
{"Compound": "COc1ccc2c(Cc3c4ccccc4cc4ccccc34)cncc2c1O", "growth inhibition, %": 2}

Let us examine a further case.
Exercise: Look up growth inhibition: Cc1nc2ccccc2c(=O)n1NC(=O)c1ccc(CS)cc1
Solution: 8

###

Please go through the items and note down their growth inhibition.
- Experiment notes: NCI Yeast Anticancer Drug Screen. Data for the rad14 strain (AID 159);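 further: 0% = growth of vehicle-treated control cultures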
- Assay conditions: S. cerevisiae rad14 strain growth inhibition; at 3.7 µM; stronger effect = higher value
This is part of a sample that, as a whole, favours compounds with a hit. Of some 79,000 tested, about 15% had one in any assay.
Answers are plain numbers, in %.

The examples below pair each entry with its known result.
{"Compound": "CC(=O)c1ccc(NCN2C(=O)c3ccccc3C2=O)cc1", "Readout unit": "%", "growth inhibition": -39}
{"Compound": "O=S(=O)(Oc1c(Cl)cc(Cl)cc1Cl)c1ccccc1", "Readout unit": "%", "growth inhibition": 0}
{"Compound": "c1ccc2cc(OCC3CO3)c(OCC3CO3)cc2c1 (stereo unspecified)", "Readout unit": "%", "growth inhibition": -8}
{"Compound": "O=C(O)[C@H]1[C@@H](C2CCCCC2)O[C@@H](C2CCCCC2)O[C@H]1C(F)(F)F", "Readout unit": "%", "growth inhibition": -1}
{"Compound": "c1cc(Nc2ccc3c(c2)OCO3)c2cc(C3CCCCC3)ccc2n1", "Readout unit": "%", "growth inhibition": 5}

Record growth inhibition per entry; entries follow.
1. COc1ccc2c(Cc3c4ccccc4cc4ccccc34)cncc2c1O
2. C[n+]1c(-c2ccc(NC(=O)c3ccc(C(=O)Nc4ccc(-c5cn6ccccc6[n+]5C)cc4)cc3)cc2)cn2ccccc21
3. CC(=O)CC[N+](C)(C)C
4. CCOC(=O)/C=C1\CCCn2c1ncc(C(=O)OCC)c2=O

Solution:
1: 7; 2: -2; 3: 6; 4: 2

Record growth inhibition per entry; entries follow.
1. O=C(Nc1ccn(C2CC(O)C(COC(c3ccccc3)(c3ccccc3)c3ccccc3)O2)c(=O)n1)c1ccccc1 (stereo unspecified)
2. NCC(O)CSCc1ccc(Cl)cc1 (stereo unspecified)

Solution:
1: 9; 2: -2

###

- Experiment notes: NCI Yeast Anticancer Drug Screen. Data for the mec2-1 strain (AID 157)
- Assay conditions: S. cerevisiae mec2-1 strain, at 3.7 µM
Compounds without any hit were thinned out: in the full panel of roughly 79,000, 15% have a hit. Calls of active or inactive are those of the source. Cut-off read from the data, not from the text of the source: active = growth inhibition above about 70%; inactive = the rest.
Response enum: Yes = active, No = inactive

Consider the following illustrative entries.
{"Molecule": "C[Si](C)(C)Cc1ccccc1C(=O)O", "Group": "No"}
{"Molecule": "COc1ccc2nc3cccc([N+](=O)[O-])c3c(NCCCO)c2c1", "Group": "Yes"}

As a next step, examine the molecule that follows.
Exercise: Test call for this molecule, please: O=C1OC(c2ccc(Cl)cc2)Sc2ccccc21 (stereo unspecified)
Solution: No

###

- Experiment notes: NCI Yeast Anticancer Drug Screen. Data for the wt2 strain (AID 169);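 further: 0% = growth of vehicle-treated yeast cultures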
- Assay conditions: S. cerevisiae wt2 strain growth inhibition; at 11.0 µM; stronger effect = higher value
The panel holds about 79,000 compounds, 15% with a hit somewhere; the sample as a whole holds those more often.
# if value of growth inhibition reaches -20%, tag T; if it stays below, tag F

Consider the following illustrative entries.
{"Compound": "Cc1ccc(Nc2n[nH]c(=S)s2)cc1C", "Group": "F"}
{"Compound": "CNc1ccc2[nH]c3ccccc3c2c1", "Group": "T"}
{"Compound": "CCCCOc1ccc(Nc2c3ccccc3nc3ccccc23)cc1", "Group": "T"}
{"Compound": "CCN(CC)c1ccc(N=Nc2cc(S(=O)(=O)O)ccc2O)c(O)c1", "Group": "F"}
{"Compound": "COc1ccc(/C=C2\\CCc3ccccc3C2=O)cc1OC", "Group": "F"}

Exercise: Identify whether the reported growth inhibition of the following compound is -20% or greater: CC(C)(C)[Si](C)(C)OCC1OC(n2cnc3c(N)ncnc32)C2OC(=S)OC12 (centres undefined)
Solution: T

Exercise: Entry CCOc1ccc2ccc3cccnc3c2n1 please
Solution: T

Exercise: Entry Cc1c(N=Nc2ccc(Cl)cc2)c(C)n(C2OC(CO)C(O)C(O)C2O)c(=S)c1C#N (centres undefined) please
Solution: T

Exercise: Entry O=c1[nH]c(=O)n(CCCO)cc1F please
Solution: T

Exercise: Entry COc1ccc(C(=O)NCCN(C)C)c2nc3ccccc3cc12 please
Solution: T

###

- Experiment notes: NCI Yeast Anticancer Drug Screen. Data for the rad18 strain (AID 177)
- Assay conditions: S. cerevisiae rad18 mutant growth inhibition; at 33.0 µM
- Experimental: Growth inhibition of yeast strains with defined genetic alterations is measured as a screen for potential anti-cancer activity. Selected strains with alterations in DNA damage repair or cell cycle control were exposed to compounds and growth inhibition was measured relative to vehicle treated controls. The strain used in this assay is rad18
The panel holds about 79,000 compounds, 15% with a hit somewhere; the sample as a whole holds those more often. Active and inactive are the calls of the source. No stated cut-off is given here; in the data, active means growth inhibition above about 70%; inactive means the rest.
Response enum: active, inactive

{"Compound": "CN1CCN(c2ccc3nc(-c4ccc5nc(-c6ccc(O)cc6)[nH]c5c4)[nH]c3c2)CC1", "Group": "active"}

Exercise: Test call for this compound, please: Cc1ccc2oc(-c3cccc(N)c3)nc2c1
Solution: inactive

Exercise: Entry CC1=NN(C(=O)CC(=O)N(C(=O)c2ccccc2)c2ccc(Cl)cc2)C(=O)C1N=Nc1ccc([N+](=O)[O-])cc1 (stereo not given) please
Solution: active

Exercise: Entry O=C(N/N=C/c1ccc2c(c1)CCC2)c1ccccc1[N+](=O)[O-] please
Solution: inactive

Exercise: Entry N=C(N)c1ccc(N=Nc2c(O)ccc3c2[nH]c2ccccc23)cc1 please
Solution: active

Exercise: Entry c1ccc(C2=NNC3c4ccccc4-c4ccccc4N3C2)cc1 (stereo not given) please
Solution: inactive

Exercise: Entry CN(NC(=O)/C(=C/C=C/c1ccccc1)NC(=O)c1ccccc1)C1=C(Cl)C(=O)[N+](c2ccccc2)=CC1 please
Solution: active

Exercise: Entry O=c1c(Br)cc2c(-c3ccccc3)c3cc(Br)c(O)c(Br)c3oc-2c1Br please
Solution: inactive

Exercise: Entry CNC(=O)OCc1c(COC(=O)NC)c(C)n(-c2ccc(Cl)c(Cl)c2)c1C please
Solution: active

Exercise: Entry O=C1c2ccc(O)cc2C(=O)c2c(O)ccc(O)c21 please
Solution: active

###

Please go through the items and note down their growth inhibition.
- Experiment notes: NCI Yeast Anticancer Drug Screen. Data for the cln2 rad14 strain (AID 165);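 further: 0% = growth equal to vehicle treated cultures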
- Assay conditions: S. cerevisiae cln2 rad14 strain, at 5.0 µM (retest, dose inferred, filed as 0.5), stronger effect = higher value
About 79,000 compounds went through this panel and 15% of them were active in at least one assay; those are over-represented in the sample as a whole.
Give bare numbers, in %.

The examples below pair each entry with its known result.
{"Compound": "CN(C)c1ccc(/C=C/c2ccnc3ccc4ccccc4c23)cc1", "growth inhibition / %": -14}
{"Compound": "COc1ccc2nc(N/N=C/c3sccc3C)cc(C)c2c1", "growth inhibition / %": 95}

Record growth inhibition per entry; entries follow.
1. O=C(N/N=C/c1ccc2c(c1)CCC2)c1ccccc1[N+](=O)[O-]
2. O=S(=O)(O)CC[S][Sn]([S]CCS(=O)(=O)O)([c]1ccccc1)[c]1ccccc1
3. CCN(CC)c1ccc(N=Nc2cc(S(=O)(=O)O)ccc2O)c(O)c1
4. O=C(O)NCC1CCCCC1 (tested in a mixture with another compound)

Solution:
1: 71; 2: 6; 3: 32; 4: -4

Record growth inhibition per entry; entries follow.
1. c1ccc(N/N=C2\CC(c3ccccc3)Oc3ccccc32)cc1 (stereo unspecified)
2. Nc1ccc2ncc(Nc3ccc(Cl)c(Cl)c3)nc2c1

Solution:
-5
42

Record growth inhibition per entry; entries follow.
1. COc1ccc2nc3cccc([N+](=O)[O-])c3c(NCCCO)c2c1
2. Nc1cccc2cc(Cl)cnc12
3. CCOC(=O)c1[nH]c2cccc3c2c1CC(Br)C3=O (stereo unspecified)

Solution:
1. 99
2. 52
3. 6
